# System: Mycobacterium marinum
# protocol: Anti-biotic assay: M. marinum growth in broth (luminescence)
# Format: cell-based
# reported.conditions: 72 h, read-out: mean (normalised M. marinum growth, Mm in broth)
# Procedure: Since fractions were not weighed individually, the injection mass was used to calculate an average mass per fraction and thus a nominal mass concentration. Plating bacteria and compounds or fractions was performed analogously to the infection assay described above. Bacteria growth was monitored with the Agilent BioTek H1 plate reader by recording luminescence at 32 °C. The prepared plates were sealed and stored at 4 °C overnight. […]
Decide using activity at 100 µM: a value greater than or equal to 90% is t, a smaller one is f.

[[record]]
compound = "Oc1ccc(/C=C/c2cc(O)c3c(c2)O[C@@H](c2ccc(O)cc2)[C@@H]3c2cc(O)c3c(c2)O[C@@H](c2ccc(O)cc2O)[C@H]3c2cc(O)cc(O)c2)cc1 [Compound 4, (−)-Gnetoline A]"
label_class = "t"


Shift focus to the following entry.
Reported activity at 100 µM at or above 90%? Oc1ccc(C=Cc2cc(O)cc3c2C(c2cc(O)cc(O)c2)C(c2ccc(O)c4c2OC(c2ccc(O)cc2O)C4c2cc(O)cc(O)c2)O3)cc1 (single isomer, unassigned; (-)) [Compound 11, (−)-Gnetuhainin M] f

* * *

# System: Dictyostelium discoideum
# protocol: Infection assay: growth of the host amoeba D. discoideum (fluorescence) in infection
# Format: cell-based
# reported.conditions: 72 h, read-out: median normalized residual growth, Dd in infection
outcome.measure: activity at 0.411523 µM
The reply must contain the numeric value and, after it, the unit.

[[record]]
compound = "Oc1ccc(/C=C/c2cc(O)c3c(c2)O[C@@H](c2ccc(O)cc2O)[C@@H]3c2cc(O)cc(O)c2)cc1 (relative stereo) [Compound 1, (+)-Gnetin D]"
outcome_measure = "activity at 0.411523 µM"
value_observed = "94.2%"


Request the reported activity at 0.411523 µM associated with Oc1ccc(/C=C/c2cc(O)c3c(c2)O[C@@H](c2ccc(O)cc2)[C@@H]3c2cc(O)c3c(c2)O[C@H](c2ccc(O)cc2O)[C@H]3c2cc(O)cc(O)c2)cc1 [Compound 5, (−)-Latifolol] 93.8%

So what does the record say about activity at 0.411523 µM for Oc1ccc(/C=C/c2cc(O)c3c(c2)O[C@H](c2ccc(O)cc2O)[C@@H]3c2cc(O)cc(O)c2)cc1 (relative stereo) [Compound 2, (+)-Gnetupendin C] ? 101%

Query (compound): Oc1ccc(/C=C/c2cc(O)c3c(c2)O[C@@H](c2ccc(O)cc2)[C@@H]3c2cc(O)c3c(c2)O[C@@H](c2ccc(O)cc2O)[C@H]3c2cc(O)cc(O)c2)cc1 [Compound 4, (−)-Gnetoline A] ; field requested: activity at 0.411523 µM 96.5%

* * *

Below, each entry is listed with its recorded activity at 100 µM.
# Tested on: Mycobacterium marinum
# protocol: Anti-biotic assay: M. marinum growth in broth (luminescence)
# Assay type: cell-based
# reported.conditions: 72 h, read-out: mean (normalised M. marinum growth, Mm in broth)
Expressed in %, but write only the number.

[[record]]
molecule = "Oc1cc(O)cc([C@H]2c3c(O)cc(/C=C/c4ccc(O)cc4O)cc3O[C@@H]2c2ccc(O)cc2O)c1 (relative stereo) [Compound 10, (−)-Gnetumontanin A]"
value_observed = 90

[[record]]
molecule = "Oc1ccc(/C=C/c2cc(O)c3c(c2)O[C@@H](c2ccc(O)cc2)[C@@H]3c2cc(O)c3c(c2)O[C@H](c2ccc(O)cc2O)[C@H]3c2cc(O)cc(O)c2)cc1 [Compound 5, (−)-Latifolol]"
value_observed = 91


What value of activity at 100 µM has been reported for the following molecule? Oc1ccc([C@@H]2Oc3cc(O)ccc3[C@H]3[C@H](c4cc(O)cc(O)c4)c4c(O)cc(O)cc4[C@H]32)cc1 [Compound 9, (−)-Gnemontanin G] 92.6
